- assay_explanation: Blood concentrations and pharmacokinetics after 1 mg/kg i.v. in mice
- Assay type: in vivo, mouse
- applied_conditions: mouse, in vivo, iv, 1 mg/kg, mouse, 6 h, mean (n = 2 for Cmpd-1), read-out: Blood Concentrations, Mean S.D.
experimental_endpoint: concentration at 6 h (ng/mL)
Response body: numeric value in ng/mL, unit text excluded.

The reported concentration at 6 h of the molecule `Cc1nn(C)c2nc(NNC(=O)Nc3cc(Cl)nc(Cl)c3)cc(C(C)C)c12` was 0.648

* * *

- assay_explanation: Blood concentrations and pharmacokinetics after 1 mg/kg i.v. in mice
- Assay type: in vivo, mouse
- applied_conditions: mouse, in vivo, iv, 1 mg/kg, mouse, 4 h, mean (n = 2 for Cmpd-1), read-out: Blood Concentrations, Mean S.D.
experimental_endpoint: concentration at 4 h (ng/mL)
All answers are understood in ng/mL, so give the number only.

The molecule `Cc1nn(C)c2nc(NNC(=O)Nc3cc(Cl)nc(Cl)c3)cc(C(C)C)c12` showed concentration at 4 h equal to 0.838

* * *

- study_system: S1P5 receptor (Homo sapiens (Human), UniProt Q9H228)
- Sequence (Q9H228 whole entry): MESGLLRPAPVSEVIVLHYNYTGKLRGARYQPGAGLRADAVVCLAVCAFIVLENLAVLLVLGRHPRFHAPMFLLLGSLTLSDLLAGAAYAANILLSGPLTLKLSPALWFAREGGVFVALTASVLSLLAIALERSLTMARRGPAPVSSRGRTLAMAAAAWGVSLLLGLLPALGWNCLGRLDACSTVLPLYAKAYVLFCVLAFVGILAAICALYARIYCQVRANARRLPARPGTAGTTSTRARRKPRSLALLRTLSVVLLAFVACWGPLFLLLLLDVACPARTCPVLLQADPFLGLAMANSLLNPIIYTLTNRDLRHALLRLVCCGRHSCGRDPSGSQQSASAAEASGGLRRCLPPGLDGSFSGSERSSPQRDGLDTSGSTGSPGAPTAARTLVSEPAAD
- assay_explanation: Antagonist assay (FLIPR TETRA, inhibition of reference agonist EC80) on S1P5
- applied_conditions: tested as the citrate salt
experimental_endpoint: IC50 (nM)
Output spec: scalar in nM, unitless text.

Memo: Cc1nn(C)c2nc(NNC(=O)Nc3cc(Cl)nc(Cl)c3)cc(C(C)C)c12 [JTE013] , reported IC50: 1.3

For the next question, use this molecule.
Lab note: measured IC50 of Cc1nn(C)c2nc(N(CC(=O)O)NC(=O)Nc3cc(Cl)nc(Cl)c3)cc(C(C)C)c12 [Compound 2] was 3.2

* * *

- assay_explanation: Blood concentrations and pharmacokinetics after 1 mg/kg i.v. in mice
- Assay type: in vivo, mouse
- applied_conditions: mouse, whole blood, iv, 1 mg/kg, mouse, 4 h, individual mice, LLOQ = 1 ng/mL, read-out: Blood Concentrations
experimental_endpoint: concentration at 4 h
# output: numeric value plus its unit

Reported concentration at 4 h of `C=CCn1nc(C)c2c(C(C)C)cc(NNC(=O)Nc3cc(Cl)nc(Cl)c3)nc21` : 2.22 ng/mL

* * *

- assay_explanation: Blood concentrations and pharmacokinetics after 1 mg/kg i.v. in mice
- Assay type: in vivo, mouse
- applied_conditions: mouse, whole blood, iv, 1 mg/kg, mouse, 1 h, individual mice, LLOQ = 1 ng/mL, read-out: Blood Concentrations
experimental_endpoint: concentration at 1 h (ng/mL)
Entry rule: numbers only, all in ng/mL.

Documented concentration at 1 h of `C=CCn1nc(C)c2c(C(C)C)cc(NNC(=O)Nc3cc(Cl)nc(Cl)c3)nc21` : 5.11

* * *

- assay_explanation: Blood concentrations and pharmacokinetics after 1 mg/kg i.v. in mice
- Type: in vivo, mouse
- applied_conditions: mouse, whole blood, iv, 1 mg/kg, mouse blood, individual mice, read-out: AUC0-tlast
experimental_endpoint: AUC(0-t)

The measured AUC(0-t) associated with C=CCn1nc(C)c2c(C(C)C)cc(NNC(=O)Nc3cc(Cl)nc(Cl)c3)nc21 [Compound 1] reads 53.9 ng·h/mL

* * *

- assay_explanation: Blood concentrations and pharmacokinetics after 1 mg/kg i.v. in mice
- Type: in vivo, mouse
- applied_conditions: mouse, whole blood, iv, 1 mg/kg, mouse blood, mean, read-out: MRT0-inf, Mean S.D.
experimental_endpoint: MRT inf
Record the result as number plus unit.

// MRT inf lookup, molecule = C=CCn1nc(C)c2c(C(C)C)cc(NNC(=O)Nc3cc(Cl)nc(Cl)c3)nc21 [Compound 1] , result: 26.7 h

* * *

- assay_explanation: Blood concentrations and pharmacokinetics after 1 mg/kg i.v. in mice
- Format: in vivo, mouse
- applied_conditions: mouse, whole blood, iv, 1 mg/kg, mouse blood, mean, read-out: CL, Mean S.D. (converted)
experimental_endpoint: clearance (mL/min/kg)
Please state the figure in mL/min/kg; there is no need to write the unit.

Looking up `C=CCn1nc(C)c2c(C(C)C)cc(NNC(=O)Nc3cc(Cl)nc(Cl)c3)nc21` , I see its clearance listed as 134

* * *

- assay_explanation: Blood concentrations and pharmacokinetics after 1 mg/kg i.v. in mice
- Format: in vivo, mouse
- applied_conditions: mouse, whole blood, iv, 1 mg/kg, mouse, 0.25 h, individual mice, LLOQ = 1 ng/mL, read-out: Blood Concentrations
experimental_endpoint: concentration at 0.25 h (ng/mL)
# unit: ng/mL | format: bare number

Short answer for `C=CCn1nc(C)c2c(C(C)C)cc(NNC(=O)Nc3cc(Cl)nc(Cl)c3)nc21` : concentration at 0.25 h was 48.3

* * *

- assay_explanation: Microsomal intrinsic clearance
- applied_conditions: mouse, microsomes, NADPH-dependent Clint (microsomal intrinsic clearance), mouse microsomes, test conc. 1 μM
experimental_endpoint: microsomal CLint at 1 μM (µL/min/mg)
Please reply with the bare figure in µL/min/mg and do not write the unit itself.

get_value(item= `Cc1nn(C)c2nc(NNC(=O)Nc3cc(Cl)nc(Cl)c3)cc(C(C)C)c12` , readout=microsomal CLint at 1 μM) returns 770

* * *

- assay_explanation: Microsomal intrinsic clearance
- applied_conditions: mouse, liver microsomes, NADPH-free T1/2 (half-life), mouse microsomes, test conc. 1 μM
experimental_endpoint: half-life at 1 μM (min)
# number only, unit min dropped from output

Query `C=CCn1nc(C)c2c(C(C)C)cc(NNC(=O)Nc3cc(Cl)nc(Cl)c3)nc21` yields half-life at 1 μM of 48

* * *

- assay_explanation: Blood concentrations and pharmacokinetics after 1 mg/kg i.v. in mice
- Assay type: in vivo, mouse
- applied_conditions: mouse, whole blood, iv, 1 mg/kg, mouse, 1 h, mean of 3 mice, read-out: Blood Concentrations, Mean S.D.
experimental_endpoint: concentration at 1 h (ng/mL)
Report as a plain number; the unit ng/mL is understood.

Lab book: concentration at 1 h of `C=CCn1nc(C)c2c(C(C)C)cc(NNC(=O)Nc3cc(Cl)nc(Cl)c3)nc21` noted as 6.48

* * *

- assay_explanation: Blood concentrations and pharmacokinetics after 1 mg/kg i.v. in mice
- Type: in vivo, mouse
- applied_conditions: mouse, whole blood, iv, 1 mg/kg, mouse, 12 h, individual mice, LLOQ = 1 ng/mL, read-out: Blood Concentrations
- Protocol: 1 mg/kg of the compound was injected by IV and blood was withdrawn at the times in table 1. The amount of starting compound was quantified by a standard curve using MS/MS determinations.
experimental_endpoint: concentration at 12 h (ng/mL)
The figure you give is taken to be in ng/mL; do not add the unit.

Note to self: concentration at 12 h recorded for C=CCn1nc(C)c2c(C(C)C)cc(NNC(=O)Nc3cc(Cl)nc(Cl)c3)nc21 [Compound 1] was 1.36

* * *

- assay_explanation: Blood concentrations and pharmacokinetics after 1 mg/kg i.v. in mice
- Assay type: in vivo, mouse
- applied_conditions: mouse, whole blood, iv, 1 mg/kg, mouse, 5 min, mean of 3 mice, read-out: Blood Concentrations, Mean S.D.
experimental_endpoint: concentration at 5 min

# concentration at 5 min of `C=CCn1nc(C)c2c(C(C)C)cc(NNC(=O)Nc3cc(Cl)nc(Cl)c3)nc21` = 161 ng/mL

* * *

- assay_explanation: In vitro plasma protein binding
- Format: in vitro ADME, mouse
- applied_conditions: mouse plasma, test concentration 5 nM
experimental_endpoint: mean fraction bound (%)
State just the number; it will be interpreted in %.

So for C=CCn1nc(C)c2c(C(C)C)cc(NNC(=O)Nc3cc(Cl)nc(Cl)c3)nc21 [Compound 1] , the logged mean fraction bound (%) turned out to be 99.9

* * *

- assay_explanation: Blood concentrations and pharmacokinetics after 1 mg/kg i.v. in mice
- Assay type: in vivo, mouse
- applied_conditions: mouse, whole blood, iv, 1 mg/kg, mouse, 2 h, mean of 3 mice, read-out: Blood Concentrations, Mean S.D.
experimental_endpoint: concentration at 2 h

Note to self: concentration at 2 h recorded for `C=CCn1nc(C)c2c(C(C)C)cc(NNC(=O)Nc3cc(Cl)nc(Cl)c3)nc21` was 2.4 ng/mL

* * *

- assay_explanation: Blood concentrations and pharmacokinetics after 1 mg/kg i.v. in mice
- Assay type: in vivo, mouse
- applied_conditions: mouse, whole blood, iv, 1 mg/kg, mouse blood, mean, read-out: Terminal half-life, Mean S.D. (converted)
experimental_endpoint: half-life (h)
Please give a number only; it is taken to be in h.

// half-life lookup, compound = `C=CCn1nc(C)c2c(C(C)C)cc(NNC(=O)Nc3cc(Cl)nc(Cl)c3)nc21` , result: 25.4

* * *

- assay_explanation: Blood concentrations and pharmacokinetics after 1 mg/kg i.v. in mice
- Format: in vivo, mouse
- applied_conditions: mouse, in vivo, iv, 1 mg/kg, mouse, 4 h, individual mice, LLOQ = 1 ng/mL, read-out: Blood Concentrations
experimental_endpoint: concentration at 4 h (ng/mL)
Numeric only. Scale: ng/mL

GET /value?item= Cc1nn(C)c2nc(NNC(=O)Nc3cc(Cl)nc(Cl)c3)cc(C(C)C)c12 [JTE013] &field=concentration at 4 h returns 1.01
